Reference for the values: paper PMC4644980

target: purified γ-secretase (Homo sapiens, UniProt P49768+Q92542); construct: made in house; assay: cell-free in vitro C100-Flag γ-secretase assay with purified enzyme; assay type: biochemical; details: 200 µM, compared with DHEC, estimated by densitometry
Where a name gives a salt, the structure may show the parent alone.
readout_label: The potency of compound (in vitro C100 γ-secretase assay)

Note The potency of compound (in vitro C100 γ-secretase assay) for the compound shown: CC(C)C[C@H]1C(=O)N2CCC[C@H]2[C@]2(O)O[C@](NC(=O)[C@@H]3C=C4c5cccc6[nH]c(Br)c(c56)C[C@H]4N(C)C3)(C(C)C)C(=O)N12 [2-Bromo-α-ergocryptine]
+++

Note The potency of compound (in vitro C100 γ-secretase assay) for the compound shown: CN1C[C@H](C(=O)N[C@]2(C)O[C@@]3(O)[C@@H]4CCCN4C(=O)[C@H](Cc4ccccc4)N3C2=O)C[C@@H]2c3cccc4[nH]cc(c34)C[C@H]21 [Dihydro-ergotamine (DHE), dihydroergotamine methanesulfonate salt]
-

Note The potency of compound (in vitro C100 γ-secretase assay) for the compound shown: CN1C[C@H](CNC(=O)OCc2ccccc2)C[C@@H]2c3cccc4c3c(cn4C)C[C@H]21 [Metergoline, metergoline]
-

Note The potency of compound (in vitro C100 γ-secretase assay) for the compound shown: CC[C@@H](CO)NC(=O)[C@@H]1C=C2c3cccc4[nH]cc(c34)C[C@H]2N(C)C1 [Methyl-ergometrine, methylergometrine]
-

More entries:
Note The potency of compound (in vitro C100 γ-secretase assay) for the compound shown: CC(C)[C@@]1(NC(=O)[C@@H]2C[C@@H]3c4cccc5[nH]cc(c45)C[C@H]3N(C)C2)O[C@@]2(O)[C@@H]3CCCN3C(=O)[C@H](Cc3ccccc3)N2C1=O [DHEC]
++
